# Run description: Tissue distribution of curcumin and THC at necropsy 15 minutes post-infusion
# Design: species or system Beagle dogs
# Applied conditions: both sexes, beagle, dog, in vivo, 10 mg/kg, Eight hour infusion; H3PO4 stabilized; read-out: Average tissue concentration, Kidney
Quantity name: concentration at 15 min

Query: Name the recorded concentration at 15 min for COc1cc(CCC(=O)CC(=O)CCc2ccc(O)c(OC)c2)ccc1O [THC, tetrahydrocurcumin] .
Response: 2.03 ng/g

###

# Run description: Tissue distribution of curcumin and THC at necropsy 15 minutes post-infusion
# Parameters: species or system Beagle dogs
# Applied conditions: both sexes, beagle, dog, in vivo, 10 mg/kg, Table 15, 2 hour infusion; −H3PO4; read-out: Tissue analysis, Liver
# Procedure: The test article will be administered to 8 Beagle dogs by intravenous infusion over two hours (Part A) or eight hours (Part B) as shown in Table 6. Multiple samples of tissue weighing approximately 1 gram were removed and snap frozen in the presence or absence of phosphoric acid (H3PO4). For all tissue samples, the levels of curcumin and THC were determined using a method developed by the Bioanalytical Department at Nucro-Technics. […]
Quantity name: concentration at 15 min post-infusion (ng/g)
Numbers only; they are read as ng/g.

Query: Name the recorded concentration at 15 min post-infusion for COc1cc(CCC(=O)CC(=O)CCc2ccc(O)c(OC)c2)ccc1O [THC, tetrahydrocurcumin] .
Response: 2.63
